B1: Arginine-glutamic acid dipeptide repeats protein, residues 502 to 543; numbered along this chain, Q9P2R6 (parent)
chain: LKGYACRHCFTTTSKDWHHGGRENILLCTDCRIHFKKYGELP

Variants of: B1
procedure_summary: abundance fitness (aPCA) (normalised: wild type 0, dead -1); higher = more abundant; growth selection in yeast, the domain comes from the species named
condition_set: Homo sapiens
# binarize abundance fitness: threshold -0.3 inclusive, high side Yes, low side No

[[record]]
chain = "LKGYACRHCFTTTSKDWHHGGRENLLLCTDCRIHFKKYGELP [I25L]"
assigned_category = "Yes"

[[record]]
chain = "LKGYACRHCFTTTSKDWHHGGRENILLCTDCRIHRKKYGELP [F35R]"
assigned_category = "Yes"

[[record]]
chain = "LKGYACRHCFTTTSKDWHHGGRENILLFTDCRIHFKKYGELP [C28F]"
assigned_category = "No"

[[record]]
chain = "LVGYACRHCFTTTSKDWHHGGRENILLCTDCRIHFKKYGELP [K2V]"
assigned_category = "Yes"

[[record]]
chain = "LKGYACRHCFTTTSKDWHHGGRENILLCTDCGIHFKKYGELP [R32G]"
assigned_category = "Yes"

[[record]]
chain = "LKGYACRHCFTTTSKDWHHGGRENILLCTDCRIHFAKYGELP [K36A]"
assigned_category = "Yes"

[[record]]
chain = "LKGYACRHLFTTTSKDWHHGGRENILLCTDCRIHFKKYGELP [C9L]"
assigned_category = "No"

[[record]]
chain = "LKGYACRRCFTTTSKDWHHGGRENILLCTDCRIHFKKYGELP [H8R]"
assigned_category = "Yes"

[[record]]
chain = "LKGYACRHCFTTTSKDWHHGGRENVLLCTDCRIHFKKYGELP [I25V]"
assigned_category = "Yes"

[[record]]
chain = "LKGYACRHCFTTTSKDWHHGGRENILLWTDCRIHFKKYGELP [C28W]"
assigned_category = "No"

[[record]]
chain = "LKGYACRHCFTTTSKDWHHGGRENILLYTDCRIHFKKYGELP [C28Y]"
assigned_category = "No"

[[record]]
chain = "LKGYACRHCFTTTSKDWHHGGRENILLCTDLRIHFKKYGELP [C31L]"
assigned_category = "No"

[[record]]
chain = "LKGYACRHCFTTTSKDWHHGGRENILLCTDCRIHFKYYGELP [K37Y]"
assigned_category = "Yes"

[[record]]
chain = "LKGYACRHCFTTTSKDWCHGGRENILLCTDCRIHFKKYGELP [H18C]"
assigned_category = "Yes"

[[record]]
chain = "LKGYACRHCFTTTSKDWHHKGRENILLCTDCRIHFKKYGELP [G20K]"
assigned_category = "No"

[[record]]
chain = "LKGYACRHCFWTTSKDWHHGGRENILLCTDCRIHFKKYGELP [T11W]"
assigned_category = "No"

[[record]]
chain = "LKGYACRHCFTTTSKDWHHGGRENILLCTKCRIHFKKYGELP [D30K]"
assigned_category = "Yes"

[[record]]
chain = "LKGYACRHCFTTTSKDWHHGGRENILLCTDCRIHQKKYGELP [F35Q]"
assigned_category = "Yes"

[[record]]
chain = "LKGYACRHCFTTTSKDWHHGGRENILLCTDCRIHFKKYIELP [G39I]"
assigned_category = "No"

